biological target: DS-Cav1 (RSV F-protein, pre-form, in-house) (respiratory syncytial virus (RSV), UniProt P03420 26-513); test: ELISA, coated DS-Cav1, IgG titrated
Sequence (P03420 26-524): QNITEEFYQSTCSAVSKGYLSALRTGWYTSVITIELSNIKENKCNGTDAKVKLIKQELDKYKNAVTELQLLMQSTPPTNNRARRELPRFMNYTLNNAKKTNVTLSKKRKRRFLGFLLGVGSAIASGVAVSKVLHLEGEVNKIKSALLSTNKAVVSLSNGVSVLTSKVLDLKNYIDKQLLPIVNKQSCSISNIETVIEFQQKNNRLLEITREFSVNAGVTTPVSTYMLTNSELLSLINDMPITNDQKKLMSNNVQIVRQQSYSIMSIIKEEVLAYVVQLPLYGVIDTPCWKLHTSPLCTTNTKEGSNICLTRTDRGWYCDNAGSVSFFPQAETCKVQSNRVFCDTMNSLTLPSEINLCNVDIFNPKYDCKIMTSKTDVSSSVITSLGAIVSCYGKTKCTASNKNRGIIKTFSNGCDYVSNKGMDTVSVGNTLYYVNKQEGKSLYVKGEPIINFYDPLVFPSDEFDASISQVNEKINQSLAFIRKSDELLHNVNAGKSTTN
pKd: −log10 of the molar value.
Here the recorded pKd is given for each entry.

Consider the worked cases shown below.
[[record]]
binder = "#62m (antibody, V domains shown, Germline-edited (m) form of 5C7, heavy chain edited; IgG; also called 5C7 (modified)) VH: QVQLVQSGAEVKKPGASVKVSCKASGYTFGHYGISWVRQAPGQGLEWMAWISAYNGNTDSIQKVQGRVTMTTDTSTNTAYLELRSLRSDDTAVYYCVRDVPATGGAATADYWGQGTLVTVSS VL: DVVMTQSPLSLPVPLGQPASISCRSSQSLVHSDGNTYLSWFQQRPGQSPRRLIYKVSDRDSGVPDRFSGSGSGTDFTLKISRVEAEDVGVYYCMQVTHWPRTFGQGTRLEIKR"
result = "~8.90"

[[record]]
binder = "#49m (antibody, V domains shown, Germline-edited (m) form of 4H7, light chain edited; IgG; also called 4H7 (modified)) VH: QVQLVQSGAEVKKPGASVKVSCKASGYTFTDYGLSWVRQAPGHGLEWMGWITAYNGDTNYAQKFQDRLSVTTDISTSTAYMELRSLKSDDTAVYYCARHVFCSGDGCYSGLGSWGQGTLVTVSS VL: QSVLTQPPSASGAPGQRVIISCSGSSSNVGSNTVNWYQQLPGTAPKLLIYDKNERPSGVPDRFSASKSGTSSSLAIGGLRSEDEADYYCATWDDNLNGWVFGGGTKLTVLG"
result = "~8.95"


Now, please, on to the next binder.
Query #27m (antibody, V domains shown, Germline-edited (m) form of 10A6, light chain edited; IgG; also called 10A6 (modified)) VH: EVQLVESGGGLVKPGGSLRLSCAASGFTFTSYRMHWVRQAPGKGLEWVSSITGGGNYIEYADSVKGRFTISRDNAKNSLDLQMNSLRAEDTAIYYCARDMYGLGSYYSPNYFDSWGQGTLVTVSS VL: QSVLTQPPSVSGAPGQRVTISCTGSSSNIGAGYDVHWYQQLPGAAPRLLMFGNSNRPSGVPDRFSGSKSGTSASLAITGLQAEDEADYYCQSYDSSLSYVFGTGTKVTVLG yields pKd of ~8.85
